Source of measurements: PubChem BioAssay AID1578

Reported inhibition values are given for each entry in this list.
Protocol Text: NOD1 signaling inhibitors, primary screen, cell-based, luminescence, uHTS (AID 1578);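 further: HEK-293T reporter cells stimulated with the NOD1 agonist gamma-tri-DAP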
Condition Description: NOD1-driven NF-kB luciferase reporter cells, at 4 µM, hits give high values
The whole screen tested about 290,000 compounds, of which about 3,000 (1%) were called active. This is one part of a sample in which actives are shown more often than they occur.
Answer in %, number only, no unit symbol.

Example results:
Cc1ccc(SCC(=O)Nc2cc([N+](=O)[O-])ccc2O)cc1    77.2
Cc1ccc(NCC(=O)N/N=C/c2cc3ccccc3nc2Cl)cc1    -21.8
Cc1cc(C(=O)CSc2nnnn2-c2ccccc2)c(C)n1CCc1ccccc1    -52.2
O=C(CCCN1C(=O)/C(=C\c2cccs2)SC1=S)Nc1cc([N+](=O)[O-])ccc1O    26.3
NC(=O)N1N=C2/C(=C/c3ccccc3)CCCC2C1c1ccccc1 (stereo unspecified)    -6.2
NC(=O)c1cc2ccc(O)cc2oc1=Nc1ccccc1    92.8
Clc1ccc(-n2nnc(-c3nccs3)n2)cc1Cl    110
COc1ccc(/C=C2/SC(=S)N(CCCC(=O)Nc3ccccc3C(=O)O)C2=O)cc1    34.1
COc1ccc(NC(=O)c2ccc(C(=O)c3ccccc3)o2)cc1    -21.8
COCCn1nnnc1CN(Cc1cc2cc(OC)c(OC)cc2[nH]c1=O)C1CCCC1    -13.9

Would you kindly look at the next entry?
**Query** Return reported inhibition; argument: Cc1cccc(C(=O)C2CCN(S(=O)(=O)c3cccc(C(=O)O)c3)CC2)c1
**Result** 12.2

----------
Protocol Text: NOD1 signaling inhibitors, primary screen, cell-based, luminescence, uHTS (AID 1578);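 further: HEK-293T reporter cells stimulated with the NOD1 agonist gamma-tri-DAP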
Condition Description: NOD1-driven NF-kB luciferase reporter cells, at 4 µM
Among all 290,000 compounds or so, about 3,000 (1%) were called active. Cut-off read from the data, not from the text of the source: active = inhibition mostly above about 36% (no sharp cut-off); inactive = mostly below about 34%. This excerpt belongs to a sample that is enriched for actives.
Pick from active, inactive when you respond.

O=C(Nc1nnc(C(F)(F)F)s1)c1c(F)cccc1F    inactive
Cc1occc1C(=O)O/N=C(\N)c1ccccc1    inactive
O=S(=O)(Nc1ccc2cn[nH]c2c1)c1ccc(Cl)cc1    inactive
Cc1oc(-c2ccc3c(c2)OCCO3)cc1C(=O)O    active
COc1ccc(C2NC(=S)NC(O)(C(F)(F)F)C2C(=O)c2cccs2)cc1 (configuration not stated)    inactive
COc1ccccc1C(=O)N1CCN(c2cccc(Cl)c2)CC1    inactive
Cc1c(O)c2cccnc2[nH]c1=O    inactive
CCOC(=O)NC1(C(F)(F)F)C(=O)N(Cc2ccccc2)C2=C1C(=O)CC(C)(C)C2 (configuration not stated)    inactive
COc1ccc(OCC(=O)NNc2c3ccccc3nc3ccccc23)cc1    active
CCOC(=O)c1c(C)[nH]c(C(=O)COC(=O)c2ccccn2)c1C    inactive

**Query** Dear colleague, could you share the recorded outcome for Cc1nn(-c2ccccc2)nc1C(=O)Nc1nnc(C(F)(F)F)s1 when you have a moment?
**Result** active

**Query** Write down the call the test reported for this compound. Item: COc1cc2c(cc1OC)C(c1ccccc1)N(C(=O)CCl)CC2 (configuration not stated)
**Result** inactive

**Query** Give the logged outcome of this assay for the following compound: O=C(Nc1nnc(C(F)(F)F)s1)c1ccc(Br)s1
**Result** active

**Query** // param item: O=C1C(Cl)=C(Nc2ccc3cn[nH]c3c2)C(=O)c2ccccc21 ; yields the recorded call
**Result** active

**Query** Entry Cc1oc(-c2ccc3c(c2)OCCO3)cc1C(=O)NCC(=O)O : call = ?
**Result** inactive

**Query** Please share the test call associated with CCCCc1nn2c(N)c(/C=C3\C=Nc4ccccc43)c(=O)nc2s1 .
**Result** active

**Query** Outcome logged for CCOC(=O)c1c(C)[nH]c(C(=O)CN2C(=O)NC(C)(CC(C)C)C2=O)c1C (configuration not stated) in this assay:
**Result** inactive

----------
Protocol Text: NOD1 signaling inhibitors, primary screen, cell-based, luminescence, uHTS (AID 1578);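 further: HEK-293T reporter cells stimulated with the NOD1 agonist gamma-tri-DAP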
Condition Description: NOD1-driven NF-kB luciferase reporter cells, at 4 µM
Screen size: about 290,000 compounds; about 3,000 (1%) were called active. Rule as the data show it: active = inhibition mostly above about 36% (no sharp cut-off); inactive = mostly below about 34%. The sample holds actives, similar compounds and a random draw of the others, so the mix is not that of the screen.
Please answer using one outcome listed in YES for active, NO for inactive

Check out these entries, answers already filled in.
Cc1ccc(NC(=O)Cn2nnc3ccccc32)c(C)c1    NO
O=C(N/N=C(\CC(=O)c1cccs1)C(F)(F)F)c1ccncc1    NO
CCOC(=O)/C(C#N)=C\c1cccnc1    NO
CCOC(=O)/C(=C\c1cccnc1)C(=O)c1cc(C(C)=O)c(Nc2ccccc2)s1    YES

# ---- query molecule ----
**Query** What classification did O=C(c1cccc(Oc2ccc([N+](=O)[O-])cc2Cl)c1)N1CCOCC1 end up with in this test?
**Result** NO

----------
Protocol Text: NOD1 signaling inhibitors, primary screen, cell-based, luminescence, uHTS (AID 1578);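 further: HEK-293T reporter cells stimulated with the NOD1 agonist gamma-tri-DAP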
Condition Description: NOD1-driven NF-kB luciferase reporter cells, at 4 µM, hits give high values
In all, about 290,000 compounds went through this assay and about 3,000 (1%) were called active. The full list was thinned out, with actives kept by preference.
Recorded inhibition by entry
Give the quantity in %, number only.

# example entries with known answers
O=S(=O)(Nc1nnc(C(F)(F)F)s1)c1ccc(Cl)cc1    -6.4
Cc1cccc(NC(=O)CSc2nccn2Cc2ccco2)c1C    -19.3
COc1ccc(C(=O)Nc2ccc3c(c2)C(=O)N(C)C3=O)cc1OC    -3.5
O=C(O)c1cccc(NS(=O)(=O)c2cc(S(=O)(=O)c3ccc(Cl)cc3)ccc2Cl)c1    0.3
O=C(CN1CC[C@@]2(O)CCCC[C@H]2[C@@H]1c1ccc(F)cc1)NCc1ccco1    -15
CC(C)Oc1cccc(NC(=O)c2cnccc2C(F)(F)F)c1    -4.2
CC1CCN(c2ncnc3c2cnn3-c2ccccc2)CC1    -77.4
O=C(CSc1nc2ncc(Br)cc2[nH]1)c1ccc([N+](=O)[O-])cc1    -15.6
CCN(CC)CCCN1C=C2C(=O)C(C)(OC(=O)C3CCCC3)C(=O)C=C2C=C1c1ccsc1 (stereo not given)    -2
COc1ccc(-c2cc(NCCc3ccncc3)n3ncnc3n2)cc1    2.6

**Query** I am curious: what inhibition value has been reported for O=C(O)c1cccc(Nc2c3ccccc3nc3ccccc23)c1 ?
**Result** -9

**Query** Can you share its inhibition? I mean this molecule: CCCCc1n[nH]c2c1/C(=N/O)CC(C)(C)C2
**Result** -12.1

**Query** Data request, read-out inhibition, for CN1C(=O)c2cccc(NC(=O)Cc3ccccc3)c2C1=O
**Result** 5.1

**Query** Please give the measured inhibition for this molecule: c1ccc(-n2ncc3c(N4CCCCC4)ncnc32)cc1
**Result** 61.4

----------
Protocol Text: NOD1 signaling inhibitors, primary screen, cell-based, luminescence, uHTS (AID 1578);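 further: HEK-293T reporter cells stimulated with the NOD1 agonist gamma-tri-DAP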
Condition Description: NOD1-driven NF-kB luciferase reporter cells, at 4 µM
Screen size: about 290,000 compounds; about 3,000 (1%) were called active. Cut-off read from the data, not from the text of the source: active = inhibition mostly above about 36% (no sharp cut-off); inactive = mostly below about 34%. What follows is part of a selection rich in actives, with near analogues and random picks from the rest.
The reply should be one of these categories: 1.0 (active), 0.0 (inactive)

A selection of reference data follows.
COc1cccc(C(C)NC(=S)NCc2ccc(F)cc2)c1 (stereo not given)    0.0
CC(Oc1ccc(Cl)cc1Cl)c1nc(-c2ccc(NC(=O)c3ccncc3)cc2)no1 (stereo not given)    1.0

**Query** Entry COC(=O)c1sccc1NC(=O)CSc1ccccc1NS(=O)(=O)c1ccccc1Cl : call = ?
**Result** 0.0

**Query** Hi team, can someone confirm the assay call for CC(Oc1ccc(Cl)cc1Cl)c1nc(-c2ccc(NC(=O)c3ccccn3)cc2)no1 (stereo not given) ?
**Result** 0.0

**Query** For O=[N+]([O-])c1ccc(Nc2ccccc2)c2nonc12 , what call appears in the results of this test?
**Result** 0.0

----------
Protocol Text: NOD1 signaling inhibitors, primary screen, cell-based, luminescence, uHTS (AID 1578);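 further: HEK-293T reporter cells stimulated with the NOD1 agonist gamma-tri-DAP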
Condition Description: NOD1-driven NF-kB luciferase reporter cells, at 4 µM
In all, about 290,000 compounds went through this assay and about 3,000 (1%) were called active. Rule as the data show it: active = inhibition mostly above about 36% (no sharp cut-off); inactive = mostly below about 34%. The list comes from a sample in which actives are over-represented; it also holds close analogues and randomly drawn compounds.
Choose the fitting class; nothing outside label 1 for active, label 0 for inactive is accepted.

The examples below pair each entry with its known result.
COc1ccc(NC(=O)Cc2c(C)n(C(=O)c3ccc(Cl)cc3)c3ccc(OC)cc23)cc1    label 0
CCOc1cc(/C=N/NC(=O)C(=O)NCc2ccc3c(c2)OCO3)ccc1OCC(=O)N1CCOCC1    label 0
Cn1c(=O)oc2cc(S(=O)(=O)NCCC(=O)N3CCN(c4ccccc4)CC3)ccc21    label 0
COc1ccc(CCNC(=O)c2ccc(-c3ccc([N+](=O)[O-])cc3Cl)o2)cc1OC    label 1
Nn1cnnc1N/N=C/c1ccc(Cl)cc1Cl    label 0
CC1CN=C(N(C(=O)Nc2ccccc2)c2ccc(F)cc2)S1 (stereo not given)    label 0
Nn1cnnc1N/N=C/c1cc(Br)cc(Br)c1O    label 1
COc1ccc(/C=N/Nc2nncn2N)cc1Br    label 0

**Query** Please indicate how the test categorized CCN(CC1CCCN(CCc2cccc(F)c2)C1)C(=O)c1ccc(CSC)o1 (stereo not given) .
**Result** label 0

**Query** Hello, I am checking results. What call was entered for COc1ccc(CCNC(=O)c2ccc(-c3ccc([N+](=O)[O-])cc3)o2)cc1OC ?
**Result** label 0
